# key: entry, value: growth
Test system: M14 melanoma
Assay: NCI-60 one-dose screen, 48 h (100 = growth as untreated, 0 = no growth, -100 = all killed)
Settings: 10 µM unless noted
Description: Growth inhibition of the M14 human tumor cell line is measured as a screen for anti-cancer activity. Cells are grown in 96 well plates and exposed to the test compound for 48 hours. Compounds are tested at a single concentration, which is 10^-5 M for most compounds. The reported endpoint is percent growth (GI% or GIPRCNT), where numbers from 0 - 100% represent growth inhibition, and numbers from -100% - 0 represent cell death. For example, a value of 40 represents 60% growth inhibition. […]
The panel holds about 83,000 compounds, 20% with a hit somewhere; the sample as a whole holds those more often.
Output spec: scalar in %, unitless text.

Completed entries (count: 3):
C=C1C(=O)O[C@H]2[C@H]1CC/C(Cn1cc(-c3cccc(Cl)c3)nn1)=C\CC[C@@]1(C)O[C@@H]21
-56.4
O=C([O][Sn]([O]C(=O)c1ccccn1)([c]1ccccc1)[c]1ccccc1)c1ccccn1
85.8
Cc1ccc(Nc2nnc(-c3ccc(Cl)cc3)o2)c(C)c1
57.6

The compound identified as "O=S(=O)(NCCNc1nccc(-c2c(-c3ccc(F)cc3)nc3sccn23)n1)c1ccc(F)cc1" registered its growth at 73.7

The compound identified as "Cc1ccc(/C=C2\CN(C(=O)CCN3CCC(=NO)CC3)C/C(=C\c3ccc(C)cc3)C2=O)cc1" registered its growth at 5.63

The compound identified as "COC(=O)c1nc(-c2ccccc2)oc1S(=O)(=O)N1CCN(c2cccc(Cl)c2)CC1" registered its growth at 86.9
